# Target under test: human recombinant histamine H2 receptor (Homo sapiens, UniProt P25021)
# Construct: expressed in transfected cells; host or cells: CHO-K1 cells
# Sequence (P25021 whole entry): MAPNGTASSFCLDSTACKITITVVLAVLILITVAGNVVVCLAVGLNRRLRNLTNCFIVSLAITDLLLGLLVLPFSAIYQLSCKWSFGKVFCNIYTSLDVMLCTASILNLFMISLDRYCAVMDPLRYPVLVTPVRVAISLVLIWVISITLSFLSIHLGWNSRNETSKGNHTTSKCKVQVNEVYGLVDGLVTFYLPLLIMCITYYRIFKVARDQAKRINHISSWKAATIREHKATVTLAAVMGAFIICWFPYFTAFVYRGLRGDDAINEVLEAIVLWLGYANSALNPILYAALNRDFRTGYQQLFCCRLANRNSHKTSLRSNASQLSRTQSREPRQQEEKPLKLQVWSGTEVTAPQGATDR
# Test name: Histamine H2 radioligand binding ([125I]Aminopotentidine)
# Condition info: percent inhibition of specific binding; screened at 1 μM; read-out: Inhibition of ligand binding, Hist. H2
Decide by inhibition at 1 µM: equal to or exceeding 20% means Yes, less means No.

Exam item: Confirm if inhibition at 1 µM reported for the molecule `Cc1ccc2c(c1)c1c(n2CCc2ccccc2)CCNC1` is 20% or above.
Marked response: No

Exam item: And `CCOC(=O)N1CCc2c(c3cc(C)ccc3n2CCc2ccccc2)C1` ?
Marked response: No

Exam item: Thanks! And `Cc1ccc(Cn2c3c(c4ccccc42)CN(C)CC3)cn1` ?
Marked response: No

Exam item: What would you report for `CCN1CCc2c(c3cc(C)ccc3n2CCc2ccccn2)C1` ?
Marked response: Yes

Exam item: Here is the next molecule: `CN1CCc2c(c3ccc(Cl)cc3n2CCc2ccccc2)C1`
Marked response: Yes

Exam item: Next: `Cc1ccc(CCn2c3c(c4cc(C(F)(F)F)ccc42)CN(C)CC3)cc1`
Marked response: Yes

Exam item: What about this molecule? `CN1CCN(CCn2c3c(c4cc(Cl)ccc42)CN(C)CC3)CC1`
Marked response: No

Exam item: Now try `CN1CCc2c(c3cc(F)ccc3n2CCc2ccc(Cl)cc2)C1` .
Marked response: Yes

Exam item: Same read-out for `CCOc1ccc(CCn2c3c(c4cc(C)ccc42)CN(C)CC3)cc1` ?
Marked response: Yes

Exam item: Another molecule to check: `Cc1ccc2c(c1)c1c(n2CCCc2ccccn2)CCN(C)C1`
Marked response: Yes

Exam item: One more molecule: `Cc1ccc(CCn2c3c(c4cc(CO)ccc42)CN(C)CC3)cn1`
Marked response: No

Exam item: Let us now turn to `CN1CCc2c(c3cc(Cl)ccc3n2CCN2CCOCC2)C1`
Marked response: Yes

Exam item: Another molecule: `Cc1ccc(CCn2c3c(c4cc(C(F)(F)F)ccc42)CN(C)CC3)cn1`
Marked response: No

Exam item: Then this molecule: `Cc1ccc2c(c1)c1c(n2CCc2ccc(C)nc2)CCN(C2CC2)C1`
Marked response: No

Exam item: Again, but for `Cc1ccc2c(c1)c1c(n2CC(=O)N2Cc3ccccc3C2)CCN(C)C1`
Marked response: Yes

Exam item: Now the molecule `CCN1CCc2c(c3ccccc3n2CCc2ccncc2)C1`
Marked response: No

Exam item: // same read-out, input: `Cc1ccc2c(c1)c1c(n2CCc2ccc(C)nc2)CCNC1`
Marked response: Yes

Exam item: Now the same for `Cc1ccc(CCn2c3c(c4cc(C)ccc42)CN(C)CC3)cc1`
Marked response: Yes

Exam item: Request: `CN1CCc2c(c3cc(Cl)ccc3n2CC(=O)N2CCCCC2)C1`
Marked response: No

---

# Target under test: human recombinant histamine H1 receptor (Homo sapiens)
# Construct: expressed in transfected cells; host or cells: CHO cells
# Sequence (P35367 whole entry): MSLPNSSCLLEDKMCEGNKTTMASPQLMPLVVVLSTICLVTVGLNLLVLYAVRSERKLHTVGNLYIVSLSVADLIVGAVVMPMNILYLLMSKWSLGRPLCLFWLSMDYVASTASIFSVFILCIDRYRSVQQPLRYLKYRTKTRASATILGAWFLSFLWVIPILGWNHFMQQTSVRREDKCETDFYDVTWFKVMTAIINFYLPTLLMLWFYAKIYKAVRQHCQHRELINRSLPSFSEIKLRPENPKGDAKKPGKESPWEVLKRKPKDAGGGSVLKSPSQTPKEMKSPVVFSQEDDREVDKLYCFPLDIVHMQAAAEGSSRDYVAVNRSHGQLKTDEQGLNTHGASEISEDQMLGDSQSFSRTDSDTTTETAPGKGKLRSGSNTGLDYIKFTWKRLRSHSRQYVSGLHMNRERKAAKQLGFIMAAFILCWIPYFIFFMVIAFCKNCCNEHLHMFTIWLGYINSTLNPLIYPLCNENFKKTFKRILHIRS
# Test name: Histamine H1 radioligand binding ([3H]Pyrilamine)
# Condition info: percent inhibition of specific binding; screened at 1 μM; read-out: Inhibition of ligand binding, Hist. H1
Binary call on inhibition at 1 µM: criterion met from 80% upward, criterion not met beneath that.

Exam item: Reported inhibition at 1 µM at or above 80%? `CN1CCc2c(c3c(Cl)cccc3n2CCC2CCCCC2)C1`
Marked response: criterion not met

Exam item: Here is the next compound: `CN1CCc2c(c3cc(F)ccc3n2CCc2ccc(Cl)cc2)C1`
Marked response: criterion met

Exam item: Also check `CN1CCc2c(c3cc(Cl)ccc3n2CC(=O)N2CC[S+]([O-])CC2)C1`
Marked response: criterion not met

Exam item: Another compound: `Cc1ccc2c(c1)c1c(n2CCc2cncnc2)CCN(C)C1`
Marked response: criterion met

Exam item: Now give it for `CN1CCc2c(c3cc(Cl)ccc3n2CC(=O)N2CCSCC2)C1` too.
Marked response: criterion not met

Exam item: Repeat with CC1CN(C(=O)Cn2c3c(c4cc(Cl)ccc42)CN(C)CC3)CC(C)N1 (stereo not shown)
Marked response: criterion not met

Exam item: Let us now turn to `Cc1ccc2c(c1)c1c(n2CCc2ccc(C(F)(F)F)nc2)CCN(C)C1`
Marked response: criterion met

Exam item: Same question for `Cc1ccc2c(c1)c1c(n2CCc2ccc(C)nc2)CC(=O)N(C)C1` please.
Marked response: criterion not met

Exam item: Thanks! And `CCOc1ccc(CCn2c3c(c4cc(C)ccc42)CN(C)CC3)cc1` ?
Marked response: criterion met

Exam item: Try the compound `CCOC(=O)N1CCc2c(c3cc(-c4cccnc4)ccc3n2CCc2ccc(C)nc2)C1`
Marked response: criterion not met

Exam item: Could you do the same for `CN1CCc2c(c3cc(Cl)ccc3n2CCc2cncc(Cl)c2)C1` , please?
Marked response: criterion met

Exam item: Let us now turn to `CN1CCc2c(c3cc(Cl)ccc3n2CCC(=O)N2CCCC2)C1`
Marked response: criterion not met

Exam item: // repeat for `CN1CCc2c(c3ccccc3n2CCc2ccccn2)C1` and report
Marked response: criterion not met

Exam item: `Cc1ccc(Cn2c3c(c4ccccc42)CN(C)CC3)cn1` , same question.
Marked response: criterion not met

Exam item: Do the same for `Cc1cccc2c3c(n(CCc4ccc(C(F)(F)F)nc4)c12)CCN(C)C3` please
Marked response: criterion not met

Exam item: Then what about the compound `COc1ccc(CCn2c3c(c4cc(Cl)ccc42)CN(C)CC3)cc1` ?
Marked response: criterion met
